The measurements presented in this section are drawn from patent US20250368745A1.

pKd for assorted binders
tgt: T1, human IL-18BP (human, UniProt O95998 31-194)
T1 construct: also called hIL-18BP; Mature Human Isoform A
T1 sequence: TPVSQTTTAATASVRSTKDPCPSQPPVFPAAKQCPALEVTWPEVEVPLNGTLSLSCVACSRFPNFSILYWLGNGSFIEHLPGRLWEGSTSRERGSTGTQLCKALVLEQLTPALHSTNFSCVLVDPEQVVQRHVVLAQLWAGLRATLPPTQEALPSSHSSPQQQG
assay_name: BLI, apparent KD, one conc.
// pKd is dimensionless: -log10 of concentration (M)

Example entries and their recorded answers appear below.
binder | pKd
SA301a light chain variant S28E (antibody, V domains shown) VH: QVQLQESGPGLVKPSQTLSLTCTVSGYSITSDYNSHWIRQPPGKGLEWIGYIHYSGSTNYNPSLKSRVTISRDTSKNQFSLKLSSVTAADTAVYYCARNYGSIYVNYFDYWGQGTLVTVSS VL: EIVLTQSPATLSLSPGERATLSCSASSEVSYMYWYQQKPGQAPRPLIYRTSNLASGIPARFSGSGSGTDFTLTISSLEPEDFAVYYCQQYHSYPTFGGGTKVEIK | 9.41
SA301a light chain variant S27D (antibody, V domains shown) VH: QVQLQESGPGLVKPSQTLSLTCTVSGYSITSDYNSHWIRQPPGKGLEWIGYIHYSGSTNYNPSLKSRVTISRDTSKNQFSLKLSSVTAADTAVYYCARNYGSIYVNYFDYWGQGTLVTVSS VL: EIVLTQSPATLSLSPGERATLSCSASDSVSYMYWYQQKPGQAPRPLIYRTSNLASGIPARFSGSGSGTDFTLTISSLEPEDFAVYYCQQYHSYPTFGGGTKVEIK | 9.37
SA301a light chain variant V29T (antibody, V domains shown) VH: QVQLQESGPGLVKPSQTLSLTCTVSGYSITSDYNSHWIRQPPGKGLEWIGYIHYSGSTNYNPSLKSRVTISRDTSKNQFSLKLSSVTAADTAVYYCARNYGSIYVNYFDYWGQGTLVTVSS VL: EIVLTQSPATLSLSPGERATLSCSASSSTSYMYWYQQKPGQAPRPLIYRTSNLASGIPARFSGSGSGTDFTLTISSLEPEDFAVYYCQQYHSYPTFGGGTKVEIK | 9.49
SA301a light chain variant V29E (antibody, V domains shown) VH: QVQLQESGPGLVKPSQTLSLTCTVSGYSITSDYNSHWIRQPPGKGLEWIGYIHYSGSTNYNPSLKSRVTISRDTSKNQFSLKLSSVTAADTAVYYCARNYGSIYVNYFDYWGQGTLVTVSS VL: EIVLTQSPATLSLSPGERATLSCSASSSESYMYWYQQKPGQAPRPLIYRTSNLASGIPARFSGSGSGTDFTLTISSLEPEDFAVYYCQQYHSYPTFGGGTKVEIK | 9.47

Record summary for SA301a light chain variant S28P (antibody, V domains shown) VH: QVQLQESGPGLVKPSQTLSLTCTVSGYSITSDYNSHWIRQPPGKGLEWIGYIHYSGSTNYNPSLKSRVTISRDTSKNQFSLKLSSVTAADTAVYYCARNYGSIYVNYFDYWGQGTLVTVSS VL: EIVLTQSPATLSLSPGERATLSCSASSPVSYMYWYQQKPGQAPRPLIYRTSNLASGIPARFSGSGSGTDFTLTISSLEPEDFAVYYCQQYHSYPTFGGGTKVEIK : reported pKd = 9.41
